Source of measurements: ChEMBL document CHEMBL3259586

What Tm was measured for each of the following?
Tested on: Lipid bilayer
Test: Binding affinity to DPPC lipid bilayer assessed as melting temperature at 1:20 drug to DPPC molar ratio by differential scanning calorimetric analysis
Give bare numbers, in °C.

{"compound": "O=c1cc(-c2ccccc2)oc2cc(O)c(O)c(O)c12 [BAICALEIN]", "unit-name": "°C", "Tm": 40.4}
{"compound": "O=c1cc(-c2ccccc2)oc2cc(O)ccc12 [7-HYDROXYFLAVONE]", "unit-name": "°C", "Tm": 40.7}
{"compound": "O=c1cc(-c2ccccc2)oc2ccccc12 [FLAVONE]", "unit-name": "°C", "Tm": 37.2}
{"compound": "O=c1cc(-c2ccccc2)oc2cccc(O)c12 [5-HYDROXYFLAVONE]", "unit-name": "°C", "Tm": 41.1}
{"compound": "O=c1cc(-c2ccccc2)oc2ccc(O)cc12 [6-HYDROXYFLAVONE]", "unit-name": "°C", "Tm": 37.4}

Please give the measured Tm for this compound: O=c1cc(-c2ccccc2)oc2cc(O)cc(O)c12 [CHRYSIN]
40.6

----------
Hi there, I'd appreciate the recorded T for every entry that follows.
Test system: Lipid bilayer
Experiment: Binding affinity to DPPC lipid bilayer assessed as pre-transition temperature at 1:2 drug to DPPC molar ratio by differential scanning calorimetric analysis
Numbers only, in °C.

Check out these entries, answers already filled in.
{"compound": "O=c1cc(-c2ccccc2)oc2cc(O)cc(O)c12 [CHRYSIN]", "quantity-kind": "T", "reported-result": 31.6}
{"compound": "O=c1cc(-c2ccccc2)oc2cc(O)ccc12 [7-HYDROXYFLAVONE]", "quantity-kind": "T", "reported-result": 27.4}
{"compound": "O=c1cc(-c2ccccc2)oc2cccc(O)c12 [5-HYDROXYFLAVONE]", "quantity-kind": "T", "reported-result": 30.3}

Then this compound:
Give its T value. Item: O=c1cc(-c2ccccc2)oc2cc(O)c(O)c(O)c12 [BAICALEIN]
33.8

----------
Tested on: Lipid bilayer
Assay: Binding affinity to DPPC lipid bilayer assessed as melting temperature at 1:2 drug to DPPC molar ratio by differential scanning calorimetric analysis
quantity-kind: Tm (°C)
Numbers only, in °C.

{"molecule": "O=c1cc(-c2ccccc2)oc2ccc(O)cc12 [6-HYDROXYFLAVONE]", "unit-name": "°C", "reported-result": 36.9}
{"molecule": "O=c1cc(-c2ccccc2)oc2cccc(O)c12 [5-HYDROXYFLAVONE]", "unit-name": "°C", "reported-result": 39.6}

Take each entry in turn and give its Tm.
1. O=c1cc(-c2ccccc2)oc2ccccc12
2. O=c1cc(-c2ccccc2)oc2cc(O)c(O)c(O)c12
3. O=c1cc(-c2ccccc2)oc2cc(O)ccc12 [7-HYDROXYFLAVONE]

36.3
40.9
39.8

// Tm lookup, key: "O=c1cc(-c2ccccc2)oc2cc(O)cc(O)c12"
40.1

----------
Tested on: Lipid bilayer
Experiment: Binding affinity to DPPC lipid bilayer assessed as melting temperature at 1:5 drug to DPPC molar ratio by differential scanning calorimetric analysis
quantity-kind: Tm (°C)
Give bare numbers, in °C.

Reference set (5 entries):
{"compound": "O=c1cc(-c2ccccc2)oc2cccc(O)c12 [5-HYDROXYFLAVONE]", "measured-on": "Lipid bilayer", "unit-name": "°C", "Tm": 40.6}
{"compound": "O=c1cc(-c2ccccc2)oc2ccccc12", "measured-on": "Lipid bilayer", "unit-name": "°C", "Tm": 36.4}
{"compound": "O=c1cc(-c2ccccc2)oc2ccc(O)cc12 [6-HYDROXYFLAVONE]", "measured-on": "Lipid bilayer", "unit-name": "°C", "Tm": 37.1}
{"compound": "O=c1cc(-c2ccccc2)oc2cc(O)cc(O)c12", "measured-on": "Lipid bilayer", "unit-name": "°C", "Tm": 39.9}
{"compound": "O=c1cc(-c2ccccc2)oc2cc(O)ccc12 [7-HYDROXYFLAVONE]", "measured-on": "Lipid bilayer", "unit-name": "°C", "Tm": 40.4}

Here is another compound to look at.
Could you share which Tm value was measured for "O=c1cc(-c2ccccc2)oc2cc(O)c(O)c(O)c12" ?
40.6
